- measurement_target: GlunN1/GluN2A glutamate receptors (Homo sapiens (Human), UniProt Q05586+Q12879)
- Sequence (Q12879 23-1464, other chains not shown): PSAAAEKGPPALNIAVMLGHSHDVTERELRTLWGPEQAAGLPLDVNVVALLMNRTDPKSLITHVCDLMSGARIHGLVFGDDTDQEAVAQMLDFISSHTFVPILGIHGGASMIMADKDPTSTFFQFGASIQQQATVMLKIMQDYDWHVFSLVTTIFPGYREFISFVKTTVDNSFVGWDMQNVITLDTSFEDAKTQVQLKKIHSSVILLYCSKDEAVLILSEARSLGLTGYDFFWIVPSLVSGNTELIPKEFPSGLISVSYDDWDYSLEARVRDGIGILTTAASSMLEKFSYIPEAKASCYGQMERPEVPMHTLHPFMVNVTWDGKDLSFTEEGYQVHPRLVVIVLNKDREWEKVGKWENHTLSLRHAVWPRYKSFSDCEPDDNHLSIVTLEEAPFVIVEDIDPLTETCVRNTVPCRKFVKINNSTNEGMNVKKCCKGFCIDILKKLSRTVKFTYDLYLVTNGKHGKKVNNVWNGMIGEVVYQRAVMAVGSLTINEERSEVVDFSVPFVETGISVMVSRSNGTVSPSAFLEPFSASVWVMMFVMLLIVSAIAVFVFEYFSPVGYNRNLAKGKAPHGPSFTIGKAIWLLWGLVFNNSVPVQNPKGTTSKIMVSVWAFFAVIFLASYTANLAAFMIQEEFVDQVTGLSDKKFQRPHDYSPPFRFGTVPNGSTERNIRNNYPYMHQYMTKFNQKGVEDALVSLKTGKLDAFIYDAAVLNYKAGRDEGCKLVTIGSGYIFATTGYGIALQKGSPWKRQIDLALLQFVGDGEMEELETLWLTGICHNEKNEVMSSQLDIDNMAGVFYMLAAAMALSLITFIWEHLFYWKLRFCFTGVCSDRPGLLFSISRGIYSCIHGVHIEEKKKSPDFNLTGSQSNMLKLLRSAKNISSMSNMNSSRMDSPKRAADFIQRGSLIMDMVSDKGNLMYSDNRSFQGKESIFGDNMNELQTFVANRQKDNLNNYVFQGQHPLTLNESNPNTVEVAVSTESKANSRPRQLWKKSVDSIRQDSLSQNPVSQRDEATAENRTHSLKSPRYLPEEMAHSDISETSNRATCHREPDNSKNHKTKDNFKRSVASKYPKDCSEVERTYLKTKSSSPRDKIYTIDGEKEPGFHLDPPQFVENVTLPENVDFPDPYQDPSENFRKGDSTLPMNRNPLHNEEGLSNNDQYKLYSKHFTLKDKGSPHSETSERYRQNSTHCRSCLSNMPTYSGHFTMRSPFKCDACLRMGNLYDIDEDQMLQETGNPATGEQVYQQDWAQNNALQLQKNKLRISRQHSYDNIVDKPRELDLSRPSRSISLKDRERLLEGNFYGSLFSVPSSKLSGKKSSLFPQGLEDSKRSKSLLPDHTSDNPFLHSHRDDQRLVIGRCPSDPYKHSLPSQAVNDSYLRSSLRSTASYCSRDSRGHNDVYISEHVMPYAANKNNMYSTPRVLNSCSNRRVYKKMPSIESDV
- procedure_summary: Whole-cell patch clamp of mammalian cells (Ionworks Barracuda), positive allosteric modulation, GluN1/GluN2A
- Format: cell-based
- measurement_parameters: HEK293 cells; % potentiation of current elicited with EC20 L-glutamate and 30 μM glycine; read-out: Avg Emax 2A (%)
Emax values for the compounds below.
Report as a plain number; the unit % is understood.

For orientation, consider the following solved cases.
// map C[C@H](CCC(O)(c1ccccc1)C(F)(F)F)[C@H]1CC[C@H]2[C@@H]3CC=C4C[C@@](C)(O)CC[C@]4(C)[C@H]3CC[C@]12C (stereo partly drawn) [Compound 559] to recorded Emax (system: GlunN1/GluN2A glutamate receptors (Homo sapiens (Human), UniProt Q05586+Q12879))
204

// map C[C@H](CC[C@@]1(O)CCOC1)[C@H]1CC[C@H]2[C@@H]3CC[C@H]4C[C@](O)(C(F)(F)F)CC[C@]4(C)[C@H]3CC[C@]12C [Compound 2706] to recorded Emax (system: GlunN1/GluN2A glutamate receptors (Homo sapiens (Human), UniProt Q05586+Q12879))
96.8

Now examine the next entry.
// map C[C@H](CCC(C)(C)O)[C@H]1CC[C@H]2[C@@H]3CC=C4C[C@](O)(C(F)(F)F)CC[C@]4(C)[C@H]3CC[C@]12C [Compound 1839] to recorded Emax (system: GlunN1/GluN2A glutamate receptors (Homo sapiens (Human), UniProt Q05586+Q12879))
493

* * *

- measurement_target: GluN2B glutamate receptors (Homo sapiens (Human), UniProt Q05586+Q13224)
- Sequence (Q13224 27-1484, other chains not shown): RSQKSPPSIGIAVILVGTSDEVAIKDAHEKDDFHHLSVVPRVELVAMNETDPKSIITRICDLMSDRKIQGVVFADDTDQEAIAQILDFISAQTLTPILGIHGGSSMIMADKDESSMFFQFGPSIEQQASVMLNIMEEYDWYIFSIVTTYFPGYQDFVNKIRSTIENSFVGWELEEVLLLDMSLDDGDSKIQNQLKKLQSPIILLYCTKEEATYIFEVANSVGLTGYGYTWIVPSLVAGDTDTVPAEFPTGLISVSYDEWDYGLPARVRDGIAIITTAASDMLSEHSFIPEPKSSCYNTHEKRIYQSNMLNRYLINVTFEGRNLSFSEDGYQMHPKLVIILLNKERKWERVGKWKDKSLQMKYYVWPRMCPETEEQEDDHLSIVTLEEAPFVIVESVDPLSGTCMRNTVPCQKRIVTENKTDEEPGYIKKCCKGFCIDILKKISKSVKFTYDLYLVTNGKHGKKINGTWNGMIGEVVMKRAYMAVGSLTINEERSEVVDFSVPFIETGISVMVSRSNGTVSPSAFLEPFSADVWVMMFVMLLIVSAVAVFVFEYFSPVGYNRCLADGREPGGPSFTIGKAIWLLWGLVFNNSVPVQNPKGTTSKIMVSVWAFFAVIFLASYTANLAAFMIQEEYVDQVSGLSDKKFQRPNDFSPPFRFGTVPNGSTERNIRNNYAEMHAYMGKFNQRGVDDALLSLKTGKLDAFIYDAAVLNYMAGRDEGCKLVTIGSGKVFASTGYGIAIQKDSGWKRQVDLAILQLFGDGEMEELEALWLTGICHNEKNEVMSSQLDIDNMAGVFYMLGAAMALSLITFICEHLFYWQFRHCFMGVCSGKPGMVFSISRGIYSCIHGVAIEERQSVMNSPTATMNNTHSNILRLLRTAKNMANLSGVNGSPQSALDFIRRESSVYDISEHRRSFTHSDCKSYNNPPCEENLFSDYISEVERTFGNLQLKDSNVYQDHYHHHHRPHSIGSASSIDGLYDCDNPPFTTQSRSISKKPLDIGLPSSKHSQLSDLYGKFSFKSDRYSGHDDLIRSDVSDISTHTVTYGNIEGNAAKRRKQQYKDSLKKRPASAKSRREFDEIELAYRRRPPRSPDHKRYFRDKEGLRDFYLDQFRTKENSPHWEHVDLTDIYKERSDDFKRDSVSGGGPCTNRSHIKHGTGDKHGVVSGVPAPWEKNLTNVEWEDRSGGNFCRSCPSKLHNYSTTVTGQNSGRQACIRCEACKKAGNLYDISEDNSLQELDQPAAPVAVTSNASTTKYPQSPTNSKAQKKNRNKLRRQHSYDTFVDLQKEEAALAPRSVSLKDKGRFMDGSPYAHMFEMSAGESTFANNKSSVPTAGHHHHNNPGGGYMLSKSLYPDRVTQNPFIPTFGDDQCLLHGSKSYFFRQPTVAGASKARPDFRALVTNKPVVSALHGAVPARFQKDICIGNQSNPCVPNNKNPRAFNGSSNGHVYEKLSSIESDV
- procedure_summary: Whole-cell patch clamp of mammalian cells (Ionworks Barracuda), positive allosteric modulation, GluN2B
- Assay type: cell-based
- measurement_parameters: % potentiation of current elicited with EC20 L-glutamate and 30 μM glycine; read-out: Avg Emax 2B (%)
- Protocol: The measurements were performed using Ion Works Barracuda platform following this procedure: Electrophysiological Procedures: • a) Intracellular solution (mM): 50 mM CsCl, 90 mM CsF, 2 mM MgCl2, 5 mM EGTA, 10 mM HEPES. Adjust to pH 7.2 with CsOH. • b) Extracellular solution, HB-PS (composition in mM): NaCl, 137; KCl, 1.0; CaCl2), 5; HEPES, 10; Glucose, 10; pH adjusted to 7.4 with NaOH (refrigerated until use). • c) Holding potential: −70 mV, potential during agonist/PAM application: −40 mV. […]
Please use fulfilled whenever Emax is not below 200%, and not fulfilled whenever it is.

Worked set:
Quick check: does CC[C@]1(O)CC[C@@]2(C)C(=CC[C@H]3[C@@H]4CC[C@H]([C@H](C)CC[C@H](O)c5cccc(C#N)c5)[C@@]4(C)CC[C@@H]32)C1 have Emax greater than or equal to 200%?
fulfilled

Quick check: does C[C@H](CCC1(O)CCCCC1)[C@H]1CC[C@H]2[C@@H]3CC[C@H]4C[C@](O)(C(F)(F)F)CC[C@]4(C)[C@H]3CC[C@]12C have Emax greater than or equal to 200%?
fulfilled

Quick check: does CC[C@]1(O)CC[C@H]2C(=CC[C@@H]3[C@@H]2CC[C@]2(C)[C@@H]([C@H](C)CCC(C)(C)O)CC[C@@H]32)C1 have Emax greater than or equal to 200%?
not fulfilled

Quick check: does CC[C@]1(O)CC[C@@]2(C)C(=CC[C@H]3[C@@H]4CC[C@H]([C@H](C)CC[C@H](O)c5ccc(C#N)cc5)[C@@]4(C)CC[C@@H]32)C1 (single isomer, unassigned) have Emax greater than or equal to 200%?
not fulfilled

Quick check: does C[C@H](CCC1(O)CCC(C)(C)CC1)[C@H]1CC[C@H]2[C@@H]3CC[C@@H]4C[C@](O)(C(F)(F)F)CC[C@]4(C)[C@H]3C(=O)C[C@]12C have Emax greater than or equal to 200%?
not fulfilled

New cases:
Quick check: does CC[C@]1(O)CC[C@@]2(C)C(=CC[C@H]3[C@@H]4CC[C@H]([C@H](C)CCC(O)c5ccccn5)[C@@]4(C)CC[C@@H]32)C1 (some centres unmarked) have Emax greater than or equal to 200%?
not fulfilled

Quick check: does CC[C@]1(O)CC[C@H]2C(=CC[C@@H]3[C@@H]2CC[C@]2(C)[C@@H]([C@H](C)CCC[C@H](O)C(C)(C)C)CC[C@@H]32)C1 have Emax greater than or equal to 200%?
fulfilled

Quick check: does CC[C@]1(O)CC[C@@]2(C)C(=CC[C@H]3[C@@H]4CC[C@H]([C@H](C)CCC(O)Cc5ccccc5)[C@@]4(C)CC[C@@H]32)C1 (some centres unmarked) have Emax greater than or equal to 200%?
not fulfilled
